- System: UACC-62 melanoma
- Experiment: NCI-60 one-dose screen, 48 h
- Test conditions: 10 µM unless noted
The panel holds about 83,000 compounds, 20% with a hit somewhere; the sample as a whole holds those more often. Active and inactive are the calls of the source. Rule for the calls: active = growth percent below 10; inactive = the rest.
Could you please pick one outcome from this set? active, inactive

Task: Per the assay record, what outcome was assigned to `COc1ccc(-c2ccc(O)c(C(=O)/C=C/c3cc(OC)c(OC)c(OC)c3)c2)cc1` ?
Result: inactive

Task: Per the assay record, what outcome was assigned to `COc1cccc2c1C(=O)c1c(O)c3c(c(O)c1C2=O)C[C@@](O)(C(C)=O)C[C@@H]3O[C@H]1C[C@H](N)[C@H](O)[C@H](C)O1` ?
Result: active

Task: Per the assay record, what outcome was assigned to `N#Cc1c(-c2ccccc2)cc(-c2ccccc2)n(CCC(=O)O)c1=O` ?
Result: inactive

Task: Per the assay record, what outcome was assigned to `OCCN1CCN(CCCN2c3ccccc3Sc3ccc(C(F)(F)F)cc32)CC1` ?
Result: active

Task: Per the assay record, what outcome was assigned to `C[C@H]1c2cccc(O)c2C(O)=C2C(=O)[C@]3(O)C(O)=C(C(N)=O)C(=O)[C@@H](N(C)C)[C@@H]3[C@@H](O)[C@@H]21` ?
Result: inactive

Task: Per the assay record, what outcome was assigned to `O=[N+]([O-])c1ccc(NS(=O)(=O)c2ccc(Cl)c(Cl)c2)cc1` ?
Result: inactive

Task: Per the assay record, what outcome was assigned to `COc1ccc(OC)c(CCn2cncc2-c2c[nH]c3cc(Br)ccc23)c1` ?
Result: inactive

Task: Per the assay record, what outcome was assigned to `COc1cc(/C=C/c2cc(/C=C/c3ccc(O)c(OC)c3)n(C(=O)Cc3ccccc3)n2)ccc1O` ?
Result: active

Task: Per the assay record, what outcome was assigned to `Nc1ccc2c(c1)C(=O)c1cc(Cl)c(Cl)cc1-2` ?
Result: inactive

Task: Per the assay record, what outcome was assigned to `CN1CCN(c2nc3scc(-c4ccccc4)c3c(=O)[nH]2)CC1` ?
Result: inactive

Task: Per the assay record, what outcome was assigned to CC1CC=CCC1C1OCC(C)(C)CO1 (stereo not given) ?
Result: inactive

Task: Per the assay record, what outcome was assigned to COc1ccc(C2=NN(C=O)C(c3cccc(Nc4ccnc5cc(Cl)ccc45)c3)C2)cc1 (stereo not given) ?
Result: inactive

Task: Per the assay record, what outcome was assigned to `CSc1nc(-c2ccc(O)cc2O)c2c(=O)[nH]c(Nc3ccc(S(=O)(=O)Nc4nc(C)cc(C)n4)cc3)nc2n1` ?
Result: inactive

Task: Per the assay record, what outcome was assigned to CC(NC(N)=S)c1ccccc1 (stereo not given) ?
Result: inactive

Task: Per the assay record, what outcome was assigned to `Cc1ccc(C2=Nc3c(ccc4c(C)c(C)c(=O)oc34)OC2)cc1` ?
Result: inactive

Task: Per the assay record, what outcome was assigned to `O=C1NCCc2c1noc2-c1ccccc1` ?
Result: inactive

Task: Per the assay record, what outcome was assigned to `CCOC(=O)c1sc(NC(=O)COc2ccc(/C=C3\CCc4cc(OC)ccc4C3=O)cc2)nc1C` ?
Result: inactive

Task: Per the assay record, what outcome was assigned to `COc1cc(-c2nc3nc4sc(C)c(C)c4c(=O)n3[nH]2)cc(OC)c1OC` ?
Result: inactive

Task: Per the assay record, what outcome was assigned to C=C1CCC2C3(C)COC(c4ccccc4)OC3CCC2(C)C1C/C=C1/C(=O)OCC1OC(C)=O (stereo not given) ?
Result: inactive

Task: Per the assay record, what outcome was assigned to `CCOc1cc(/C=C/C(=O)C(C(=O)/C=C/c2ccc(OC(=O)CNc3nc4ccccc4[nH]3)c(OCC)c2)C(=O)CNc2nc3ccccc3[nH]2)ccc1OC(=O)CNc1nc2ccccc2[nH]1` ?
Result: active

Task: Per the assay record, what outcome was assigned to `COc1cc(/C(Cl)=C/C=C/C(=O)c2c(C)[n+]([O-])c3ccc(Cl)cc3[n+]2[O-])cc(OC)c1OC` ?
Result: inactive

Task: Per the assay record, what outcome was assigned to `COc1cc(/C=C/C(=O)c2c(C)n([O-])c3ccccc3[n+]2=O)cc(OC)c1OC` ?
Result: inactive

Task: Per the assay record, what outcome was assigned to `COc1cnc2c(c1)C(=O)c1c-2n(CCCN2CCC(O)CC2)c(=O)c2cc(F)ccc12` ?
Result: active

Task: Per the assay record, what outcome was assigned to `COCCOCCOCCOCCOc1ccc2c(c1)C(=O)c1nc3ncccc3c(=O)n1-2` ?
Result: active

Task: Per the assay record, what outcome was assigned to Clc1ccc2c(c1)C(Br)c1cc(Cl)cc(Cl)c1-2 (stereo not given) ?
Result: inactive

Task: Per the assay record, what outcome was assigned to `Oc1ccccc1/C=N/N1CCCCCC1` ?
Result: inactive

Task: Per the assay record, what outcome was assigned to `Clc1ccc2[nH]cc(-c3cncn3CCc3ccccc3)c2c1` ?
Result: inactive

Task: Per the assay record, what outcome was assigned to `O=c1[nH]cc(Nc2cc(Cl)c3nonc3c2[N+](=O)[O-])c(=O)[nH]1` ?
Result: inactive

Task: Per the assay record, what outcome was assigned to `O=C(Nc1cccc(Cl)c1)Nc1cccc(Cl)c1` ?
Result: inactive

Task: Per the assay record, what outcome was assigned to `COc1ccc2cc(-c3nc4ccccc4[nH]3)c(=O)oc2c1` ?
Result: inactive

Task: Per the assay record, what outcome was assigned to `CC(=O)Nc1ccc(C(=O)COc2ccc(/C=C3\CCc4ccccc4C3=O)cc2)cc1` ?
Result: inactive

Task: Per the assay record, what outcome was assigned to CCN1CC2=C(Nc3nc(SC)[nH]c(=O)c3C2c2cc(OC)c(OC)c(OC)c2)/C(=C/c2cc(OC)c(OC)c(OC)c2)C1 (stereo not given) ?
Result: inactive

Task: Per the assay record, what outcome was assigned to `O=C1c2cc3c(cc2-c2c1c1ccc(Cl)cc1c(=O)n2CCCNCCO)OCO3` ?
Result: active

Task: Per the assay record, what outcome was assigned to `CCCCCc1c(C)[nH]c(/C=C2\N=C(c3ccc[nH]3)C=C2Oc2ccc(Cl)cc2)c1C` ?
Result: active

Task: Per the assay record, what outcome was assigned to `COc1ccc(Cl)cc1Nc1nc(C(F)(F)F)ccc1C(=O)N/N=C/c1c(Cl)cccc1Cl` ?
Result: inactive

Task: Per the assay record, what outcome was assigned to `N[C@H](CS)C(=O)O` ?
Result: inactive

Task: Per the assay record, what outcome was assigned to `N#Cc1c(NC(=O)c2ccco2)[n+]([O-])c2ccccc2[n+]1[O-]` ?
Result: inactive

Task: Per the assay record, what outcome was assigned to `Nc1ncnc2c1CN(Cc1ccccc1)CC2` ?
Result: inactive

Task: Per the assay record, what outcome was assigned to CC(NC(=O)Oc1cccc2ccccc12)c1ccccc1 (stereo not given) ?
Result: inactive

Task: Per the assay record, what outcome was assigned to `CC(=O)/C(=C/c1ccc(Cl)cc1)C(=O)c1ccccc1` ?
Result: inactive
